system: U2OS; assay: Multiplex assay against U2OS; type: toxicity, cell-based; details: human, 24 h, 10 µM, compound concentration 10 uM, replicate 2
REPORTED PROPERTY: Population Pyknosed Nuclei (%)
I only need the number, in %, no unit after it.

Ask | Query the reported Population Pyknosed Nuclei (%) for U2OS; item: CNc1cc(Oc2cc(C(=O)Nc3cc(N4CCN(C)CC4)cc(C(F)(F)F)c3)ccc2C)ncn1
Reply | 60

Ask | Query the reported Population Pyknosed Nuclei (%) for U2OS; item: CCN1CCN(c2ccc(Nc3cc(N(C)C(=O)Nc4c(Cl)c(OC)cc(OC)c4Cl)ncn3)cc2)CC1
Reply | 8

Ask | Query the reported Population Pyknosed Nuclei (%) for U2OS; item: CCCS(=O)(=O)c1nc(NC2CC2)cc(-c2ccc3c(ccn3C3CC(C)(C)NC(C)(C)C3)c2)n1
Reply | 15

Ask | Query the reported Population Pyknosed Nuclei (%) for U2OS; item: CCc1cccc(CC)c1NC(=O)c1nn(C)c2c1CCc1cnc(Nc3ccc(N4CCN(C)CC4)cc3OC)nc1-2
Reply | 16
